test: Standard protocol for determination of kcat and KM (continuous spectrophotometric assay, Acetyl CoA hydrolysis at 235 nm); assay type: biochemical; settings: purified protein; about 23° C.; pH 6.8; 0.2 mM acetyl CoA; glyphosate 0.125 to 10 mM
Assignment: determine reported Km for the given molecules.
Record the value in µM, omitting the unit from your answer.

Give Km for SEQ ID NO: 424: GAT polypeptide (protein, 9_15D8, GAT polypeptide) MIEVKPINAEDTYEIRHRILRPNQPLEACMYETDLLGGTFHLGGYYRGKLVSIASFHQAEHPELEGQKQYQLRGMATLEGYREQKAGSTLIRHAEALLRKKGADLLWCNARTSASGYYKKLGFSEQGEVYDTPPVGPHILMYKKLT
1100

State, in one line, measured Km of SEQ ID NO: 317: GAT polypeptide (protein, 14_6B10, GAT polypeptide) MIEVKPINAEDTYEIRHRILRPNQPLEACKYETDLLGGTFHLGGYYRGKLISIASFHQAEHPELEGQKQYQLRGMATLEGYREQKAGSTLIRHAEELLRKKGADLLWCNARTSASGYYKKLGFSEQGGVYDMPPVGPHILMYKKLT
1400

Name the recorded Km of the item SEQ ID NO: 444: GAT polypeptide (protein, 0_5D11, GAT polypeptide) MIEVKPINAEDTYELRHRILRPNQPIEACMYESDLLRGAFHLGGFYRGKLISIASFHQAEHSDLQGQKQYQLRGMATLEGYREQKAGSTLIRHAEQLLRKRGADLLWCNARTSASGYYKRLGFSEQGEVFDTPPVGPHILMYKRLT in your answer.
670

Source listed as patent US8008547B2.
